target: HIV Env, isolate HIV-16055-2.3 (HIV); test: cell-based or functional assay
MEASURE: IC80 (µg/ml) with constrains (µg/mL)
Write it as a number; the unit µg/mL goes unstated.

Ask: Look at this binder and give its reported IC80 (µg/ml) with constrains. PGDM1400 (antibody, V domains shown) VH: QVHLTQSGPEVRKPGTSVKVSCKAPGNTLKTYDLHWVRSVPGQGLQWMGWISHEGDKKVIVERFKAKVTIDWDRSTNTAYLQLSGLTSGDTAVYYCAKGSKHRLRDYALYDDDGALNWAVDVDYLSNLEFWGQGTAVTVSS VL: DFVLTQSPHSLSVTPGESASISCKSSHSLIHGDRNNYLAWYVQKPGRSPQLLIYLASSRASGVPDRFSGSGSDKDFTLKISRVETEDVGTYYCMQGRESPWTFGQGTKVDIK
Result: 0.013
